test.details: recombinant UMI read abundance after kanamycin selection (control-corrected) (log10(CPM+1)); higher = more efficient recombination; extreme values may be limits of the assay; sequences stand for … in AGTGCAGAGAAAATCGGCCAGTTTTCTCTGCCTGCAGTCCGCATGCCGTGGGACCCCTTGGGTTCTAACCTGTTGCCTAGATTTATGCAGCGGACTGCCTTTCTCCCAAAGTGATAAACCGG…AGGTTGGTTTCACT; site = the 11-nt donor
Task for the reader: assign each of the following sequences its reported recombinant UMI read abundance (log10).
Answers are plain numbers.

Record excerpt, results attached:
GGGCAACCATGGACCGGTTTTCCCGGTAATCCGTATTTGCG (site GGGCAACCTCG); 0
ACACGAACATGGACCGGTTTTCCCGGTAATCCGTATTTGTC (site ACACGAACTGA); 2.77
AAATGCTCATGGACCGGTTTTCCCGGTAATCCGTATTTGAA (site TAATGCTCTTT); 1.17
GTGTATGCATGGACCGGTTTTCCCGGTAATCCGTATTTGGT (site GTGGATGCTAC); 0
GTTCGAGCATGGACCGGTTTTCCCGGTAATCCGTATTTGCA (site GTACGAGCTTG); 1.97
CCCTTCTCATGGACCGGTTTTCCCGGTAATCCGTATTTGGG (site CCCTTTTCTCC); 0.00608

Provide each entry's recombinant UMI read abundance (log10) from the list below.
1. GTGATGGCATGGACCGGTTTTCCCGGTAATCCGTATTTGAT (site GTGATGGCTAT)
2. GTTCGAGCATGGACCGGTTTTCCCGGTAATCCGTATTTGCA (site GTTCGATCTTG)
3. TACGTGACATGGACCGGTTTTCCCGGTAATCCGTATTTGCA (site TACGTGACTTG)

output:
1: 2.31; 2: 1.09; 3: 2.29

----------
test.details: recombinant barcode read abundance after kanamycin selection (control-corrected) (log10(CPM+1)); higher = more efficient recombination; sequences stand for … in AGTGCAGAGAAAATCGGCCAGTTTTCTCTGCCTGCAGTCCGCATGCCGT…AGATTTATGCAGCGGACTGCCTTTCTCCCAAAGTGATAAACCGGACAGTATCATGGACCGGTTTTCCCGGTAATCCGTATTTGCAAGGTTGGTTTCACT; site = the 11-nt target
Dear colleague, classification is by recombinant barcode read abundance (log10), with ranges listed here: bucket A: < 0.1; bucket B: ≥ 0.1 and < 0.7; bucket C: ≥ 0.7

GACCGCGCTTGGGTTCTAACCTGTTGCCT (site GACCGAGCTAG); bucket B
GAGGGTCCTTGGGTTCTAACCTGTTGCTT (site GAGGGTCCTAG); bucket C

input: Which category does the recorded recombinant barcode read abundance (log10) put GTCGCGCCTTGGGTTCTAACCTGTTGCCT (site GTCGCGCCTAG) in?
output: bucket B

input: Could you do the same for TGTATGACTTGGGTTCTAACCTGTTGCCT (site TGTATGACTAG) , please?
output: bucket B

input: And for CTATGGACTTGGGTTCTAACCTGTTGCAG (site CTATGGACTTT) ?
output: bucket A

input: Repeat with GACCAGCCTTGGGTTCTAACCTGTTGCAT (site GACCAGCCTAC)
output: bucket C

input: Now try GCGCGAACTTGGGTTCTAACCTGTTGCCT (site GCTCGAACTAG) .
output: bucket B

input: Please give the result for GGCGTGTCTTGGGTTCTAACCTGTTGCGG (site GACGTGTCTCG) too.
output: bucket B

input: Param item: GACACGCCTTGGGTTCTAACCTGTTGCTT (site GACACGCCTAC)
output: bucket A

input: Likewise for AGGGGATCTTGGGTTCTAACCTGTTGCCT (site AGTGGAGCTAG) ?
output: bucket A

input: Subsequent entry: ACCAGAGCTTGGGTTCTAACCTGTTGCCT (site ACTAGAGCTAG)
output: bucket B

input: Here is the next sequence: ATCGGATCTTGGGTTCTAACCTGTTGCCT (site ATCGGATCTAG)
output: bucket B
